Data credit: patent US20060148760A1

SYSTEM UNDER TEST: S-100b/RAGE interaction (Homo sapiens, UniProt Q15109)
Construct: generate soluble RAGE (sRAGE) comprised of the V and C domains
Sequence (Q15109 23-342 limits assumed): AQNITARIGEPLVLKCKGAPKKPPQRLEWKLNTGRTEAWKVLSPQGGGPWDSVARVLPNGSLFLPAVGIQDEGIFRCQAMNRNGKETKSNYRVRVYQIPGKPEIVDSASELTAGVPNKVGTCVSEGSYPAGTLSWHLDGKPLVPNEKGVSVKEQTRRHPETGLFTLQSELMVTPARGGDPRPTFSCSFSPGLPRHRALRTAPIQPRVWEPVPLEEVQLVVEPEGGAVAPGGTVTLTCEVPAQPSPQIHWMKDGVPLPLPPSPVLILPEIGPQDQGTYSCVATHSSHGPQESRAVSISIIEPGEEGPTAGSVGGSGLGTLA
RUN DESCRIPTION: ELISA assay, S-100b binding to sRAGE
TEST PARAMETERS: plate-bound S100b, concentration at which 50% signal is inhibited
Where a name gives a salt, the structure may show the parent alone.
Label met when IC50 < 1000 nM; otherwise not met.

// below: answered molecules
Check if IC50 falls below 1000 nM for CCN(CC)CCOc1ccc(NC(=O)[C@@H](Cc2ccc(OCc3ccccc3)cc2)NC(=O)OC(C)(C)C)c(OCCN(CC)CC)c1 .
not met

Given CCN(CC)CCOC(=O)c1ccc(NC(=O)[C@@H](Cc2ccc(OCc3ccccc3)cc2)NC(=O)OC(C)(C)C)c(OCc2ccco2)c1 , is recorded IC50 strictly lower than 1000 nM?
not met

I wonder whether CCCCOc1cc(C(=O)OCCN(CC)CC)ccc1NC(=O)[C@@H](Cc1ccc(OCc2ccccc2)cc1)NC(=O)OC(C)(C)C has IC50 below 1000 nM. Can you tell?
not met

Given CCN(CC)CCCOc1ccc(NC(=O)[C@@H](Cc2ccc(OCc3ccccc3)cc2)NC(=O)OC(C)(C)C)c(OCCCN(CC)CC)c1 , is recorded IC50 strictly lower than 1000 nM?
met

More entries:
Does this molecule meet the criterion IC50 < 1000 nM? CCCCOc1cc(C(=O)OC)ccc1NC(=O)[C@H](N)Cc1ccc2ccccc2c1 [Example 2, Hydrochloride]
not met

====

SYSTEM UNDER TEST: β-amyloid—RAGE interaction (Homo sapiens, UniProt Q15109)
Construct: generate soluble RAGE (sRAGE) comprised of the V and C domains
Sequence (Q15109 23-342 limits assumed): as above
RUN DESCRIPTION: ELISA assay, β-amyloid binding to sRAGE
TEST PARAMETERS: plate-bound β-amyloid
Counter-ions that a name gives are not always drawn.
Kindly supply the reported IC50 values for the records listed here.
Give bare numbers, in nM.

Example results:
Check the records and state IC50 for CCCCOc1cc(C(=O)OCCN(CC)CC)ccc1NC(=O)[C@@H](Cc1ccc(OCc2ccccc2)cc1)NC(C)C [Example 13]
1000

Provide measured IC50 value, entry: CCCCOc1cc(C(=O)OCCN(CC)CC)ccc1NC(=O)[C@H](N)Cc1ccc(OCc2ccccc2)cc1 [Example 4, Dihydrochloride]
2200

Complete the entry with IC50 for CCCCOc1cc(C(=O)OCCN(CC)CC)ccc1NC(=O)[C@@H](Cc1ccc2ccccc2c1)NC [Example 5, Dihydrochloride]
1810

Take each entry in turn and give its IC50.
1. CCN(CC)CCOc1ccc(NC(=O)[C@@H](Cc2ccc(OCc3ccccc3)cc2)NC(=O)OC(C)(C)C)c(OCCN(CC)CC)c1 [Example 19]
2. CCCCOc1cc(C(=O)OCCN(CC)CC)ccc1NC(=O)[C@@H](Cc1ccc(OCc2ccccc2)cc1)NC(=O)OC(C)(C)C [Example 3]

[800, 1500]

Would you mind listing IC50 for each of the following compounds?
1. CCN(CC)CCCOc1ccc(NC(=O)[C@@H](Cc2ccc(OCc3ccccc3)cc2)NC(=O)OC(C)(C)C)c(OCCCN(CC)CC)c1 [Example 21]
2. CCCCOc1cc(C(=O)OCCN(CC)CC)ccc1NC(=O)[C@@H](Cc1ccc(OCc2ccccc2)cc1)NC(=O)NC(C)(C)C [Example 18]

1: 1230; 2: 2000

====

SYSTEM UNDER TEST: Carboxymethyl Lysine (CML)/RAGE interaction (Homo sapiens)
Construct: generate soluble RAGE (sRAGE) comprised of the V and C domains
RUN DESCRIPTION: ELISA assay, CML binding to sRAGE
TEST PARAMETERS: plate-bound CML
Description: S100b, β-amyloid and CML (500 ng/100 μL/well) in 100 mM sodium bicarbonate/sodium carbonate buffer (pH 9.8) is loaded onto the wells of a NUNC Maxisorp flat bottom 96—well microtitre plate. The plate is incubated at 4° C. overnight. The wells are aspirated and treated with 50 mM imidazole buffer saline (pH 7.2) (with 1 mM CaCl2/MgCl2) containing 1% bovine serum albumin (BSA) (300 μL/well) for two h at 37° C. Test compounds are dissolved in nanopure water (concentration: 10-100 μM). […]
Structures can show the parent of a compound that is named as a salt.
Would you mind telling me the reported IC50 of each entry?
Answers are plain numbers, in nM.

Specify the recorded IC50 for CC(C)(C)OC(=O)N[C@H](Cc1ccc(OCc2ccccc2)cc1)C(=O)Nc1ccc(C(=O)OC(C)(C)C)cc1OC(C)(C)C , system: Carboxymethyl Lysine (CML)/RAGE interaction (Homo sapiens).
8000

Tell me its IC50 on Carboxymethyl Lysine (CML)/RAGE interaction (Homo sapiens): CCCCOc1cc(C(=O)OCCN(CC)CC)ccc1NC(=O)[C@@H](Cc1ccc(OCc2ccccc2)cc1)NC(=O)OC(C)(C)C
1500

Report value only: IC50, Carboxymethyl Lysine (CML)/RAGE interaction (Homo sapiens), CCCCOc1cc(C(=O)OCCN(CC)CC)ccc1NC(=O)[C@@H](Cc1ccc2ccccc2c1)NC [Example 5, Dihydrochloride]
1270

Answer with IC50 of CCCCOc1cc(C(=O)OCCN(CC)CC)ccc1NC(=O)[C@@H](Cc1ccc(OCc2ccccc2)cc1)NC(C)C measured for Carboxymethyl Lysine (CML)/RAGE interaction (Homo sapiens).
700

Report value: IC50, system: Carboxymethyl Lysine (CML)/RAGE interaction (Homo sapiens), compound: CCCCOc1cc(C(=O)OC)ccc1NC(=O)[C@H](N)Cc1ccc2ccccc2c1 [Example 2, Hydrochloride]
3160

Batch request: IC50 per item, same order as input.
1. CCN(CC)CCCOc1ccc(NC(=O)[C@@H](Cc2ccc(OCc3ccccc3)cc2)NC(=O)OC(C)(C)C)c(OCCCN(CC)CC)c1
2. CCCCOc1cc(C(=O)OCCN(CC)CC)ccc1NC(=O)[C@@H](Cc1ccc(OCc2ccccc2)cc1)NC(=O)NC(C)(C)C
3. CCN(CC)CCOc1ccc(NC(=O)[C@@H](Cc2ccc(OCc3ccccc3)cc2)NC(=O)OC(C)(C)C)c(OCCN(CC)CC)c1

1. 460
2. 840
3. 800

System Carboxymethyl Lysine (CML)/RAGE interaction (Homo sapiens). Read-out IC50. Item CCCCOc1cc(C(=O)OCCN(CC)CC)ccc1NC(=O)[C@H](N)Cc1ccc(OCc2ccccc2)cc1 [Example 4, Dihydrochloride] . Report value.
1120

====

System: S-100b/RAGE interaction in Glioma cells
RUN DESCRIPTION: Functional assay: inhibition of NF-κB in Glioma cells (S-100b/RAGE interaction)
Type: cell-based
TEST PARAMETERS: Glioma cell
Structures can show the parent of a compound that is named as a salt.
VALUE KIND: IC50 (µM)
Numbers only, in µM.

Given CCCCOc1cc(C(=O)OCCN(CC)CC)ccc1NC(=O)[C@H](N)Cc1ccc2ccccc2c1 [Example 1, Dihydrochloride] , respond with its IC50.
3.3

====

SYSTEM UNDER TEST: S-100b/RAGE interaction (Homo sapiens)
Construct: generate soluble RAGE (sRAGE) comprised of the V and C domains
RUN DESCRIPTION: ELISA assay, S-100b binding to sRAGE
TEST PARAMETERS: plate-bound S100b, concentration at which 50% signal is inhibited
Structures can show the parent of a compound that is named as a salt.
VALUE KIND: IC50

Give IC50 for the following compound: CCCCOc1cc(C(=O)OCCN(CC)CC)ccc1NC(=O)[C@@H](Cc1ccc(OCc2ccccc2)cc1)NCc1ccccc1
2.8 µM

Please state IC50 for every compound in the list that follows.
1. CCN(CC)CCOC(=O)c1ccc(NC(=O)[C@H](N)Cc2ccc(OCc3ccccc3)cc2)c(OCc2ccco2)c1 [Example 24, Dihydrochloride]
2. CCCCOc1cc(C(=O)OCCN(CC)CC)ccc1NC(=O)[C@@H](Cc1ccc(OCc2ccccc2)cc1)NS(=O)(=O)c1ccccc1
3. COC(=O)c1ccc(NC(=O)[C@@H](Cc2ccc(OCc3ccccc3)cc2)NC(=O)OC(C)(C)C)c(O)c1
4. CCCCOc1cc(C(=O)OCCN(CC)CC)ccc1NC(=O)[C@@H](Cc1ccc(OCc2ccccc2)cc1)NC(=O)NC(C)(C)C
5. CCCCOc1cc(C(=O)OCCN(CC)CC)ccc1NC(=O)[C@@H](Cc1ccc2ccccc2c1)NC [Example 5, Dihydrochloride]
6. CCN(CC)CCOC(=O)c1ccc(NC(=O)[C@@H](Cc2ccc(OCc3ccccc3)cc2)NC(=O)OC(C)(C)C)c(OCC(C)C)c1
7. CCCCOc1cc(C(=O)OCCN(CC)CC)ccc1NC(=O)[C@H](N)Cc1ccccc1 [Example 11, Dihydrochloride]
8. CCCCOc1cc(C(=O)OCCN(CC)CC)ccc1NC(=O)[C@H](N)Cc1ccc(OCc2ccccc2)cc1 [Example 4, Dihydrochloride]

["2.7 µM", "20 to 30 µM", "6.3 µM", "2.3 µM", "2.88 µM", "2 µM", "10 to 30 µM", "0.82 µM"]

# map each compound to its IC50
1. CCCCOc1cc(C(=O)OCCN(CC)CC)ccc1NC(=O)[C@@H](Cc1ccc(OCc2ccccc2)cc1)NC(=O)NCC
2. CCCCOc1cc(C(=O)OCCN(CC)CC)ccc1NC(=O)[C@@H](Cc1ccc(OCc2ccccc2)cc1)NC(C)=O
3. CCCCOc1cc(C(=O)OCCN(CC)CC)ccc1NC(=O)[C@@H](Cc1ccc(OCc2ccccc2)cc1)NS(C)(=O)=O

["10 µM", "5.6 µM", "10 to 30 µM"]
